System: BDF1 mice, P388 leukemia ip, median survival T/C
assayInfo: NCI In Vivo Anticancer Drug Screen. Data for tumor model P388 Leukemia (intraperitoneal) in B6D2F1 (BDF1) mice
testSettings: endpoint: median survival time; dose: 25.0 mg/kg/injection; schedule: Q01DX009 (ip); vehicle: water; higher = longer survival
Toxic doses and inconclusive results are not listed.
Give measured T/C for each item. Keep answers brief.

Check out these entries, answers already filled in.
molecule: CC(C)C(=O)c1ccc(-c2ccccc2)cc1
T/C: 113 % of control
//
molecule: O=C1NC(c2cccs2)(c2cccs2)C(=O)N1Cl
T/C: 103 % of control
//
molecule: CC(=O)Nc1ccc(SSSc2ccc(NC(C)=O)cc2)cc1
T/C: 96 % of control
//
molecule: CC1(C)OCC2OC3(C(=O)O)OC(C)(C)OC3C2O1 (stereo not given)
T/C: 100 % of control
//
molecule: Brc1cnn2c1NCC2
T/C: 93 % of control

Dear colleague, could you please provide T/C for the molecules listed below?
1. O=c1oc2ccccc2c2c1C(c1ccc3c(c1)OCO3)C=C(c1ccc3c(c1)OCO3)O2 (stereo not given)
2. CC1=C(C)CC2C(=O)C=CC(=O)C2C1 (stereo not given)

104 % of control
90 % of control

Report T/C for each item below.
1. O=C1CCC2(CCCC2)c2ccccc21
2. O=CN1CCCC1C(=O)O (stereo not given)
3. CCCC1CC[N-]CC1.CCCC1CC[N-]CC1.[Cl][Co][Cl]

1: 95 % of control; 2: 96 % of control; 3: 116 % of control

###

Please provide measured T/C for the entries that follow.
Tested on: BDF1 mice, P388 leukemia ip, median survival T/C
assayInfo: NCI In Vivo Anticancer Drug Screen. Data for tumor model P388 Leukemia (intraperitoneal) in B6D2F1 (BDF1) mice
testSettings: endpoint: median survival time; dose: 50.0 mg/kg/injection; schedule: Q01DX009 (ip); vehicle: saline with Tween-80; higher = longer survival
Toxic doses and inconclusive results are not listed.

compound: CCN(/C=C/C=C(C#N)C#N)CC
T/C: 109 % of control

Required: T/C, one value per compound below.
1. O=C(Nc1ccccc1)Oc1cccc(/C=N/Sc2ccccc2)c1
2. Cc1onc(-c2ccccc2)c1NC(=O)OCc1ccc(-c2cc(C(F)(F)F)cc(C(F)(F)F)c2)o1
3. Cc1cc(O)c(C(C)C)cc1S(=O)(=O)O (tested in a mixture with another compound)
4. Cc1cccc(C)c1NC(=S)N1CCC(CCCC2CCN(C(=S)Nc3c(C)cccc3C)CC2)CC1
5. Clc1nc(Cl)c(Nc2ccn[nH]2)nc1Cl
6. Nc1ncnc2c1ncn2C1CCCO1 (stereo not given)

91 % of control
97 % of control
100 % of control
86 % of control
100 % of control
100 % of control

Dear reader, for each entry below, please note its T/C.
1. Cc1ccc(CNc2ccc([N+](=O)[O-])cc2)cc1
2. Clc1ccc(N=Cc2cccs2)cc1
3. CCCCOCN(COCCCC)C(C)Cc1ccccc1 (stereo not given)
4. O=C1SC2(CCCCC2)SC1=O
5. O=C(O)/C=C/c1c(Cl)cccc1Cl
6. CN(C)P(N)(=S)N(C)C
7. O=C(/C=C/c1ccc(OCc2ccccc2)cc1)c1ccccn1

1. 104 % of control
2. 96 % of control
3. 122 % of control
4. 95 % of control
5. 106 % of control
6. 96 % of control
7. 97 % of control
